Origin of measurements: patent US7786129B2

Molecular target: α1 receptor
Experiment: α1 receptor binding experiment
Settings: rat isolated frontal cortex preparation, ligand 3H-prazosine 0.3 nM
Experimental: Receptor bindings—with the exception of the 5-HT2C receptor binding—were determined by using cerebral region preparations of male Wistar rats weighing 120-200 g. For the preparation of 5-HT1A receptor binding frontal cortex preparations were used. The al receptor binding studies were performed from isolated frontal cortex pre-parations. […] The protein contents of membrane preparations were determined by the method of Lowry (1951). […]
pIC50: −log10 of the molar value.
Readout Type: pIC50

// known answers, use as guide
CCC1(CCCCN2CCN(c3cccc4c3OCCO4)CC2)C(=O)Nc2ccccc21 (stereo not drawn) [Example 63]: > 7.30
CCC1(CCCCN2CCN(c3ccccn3)CC2)C(=O)Nc2ccc(Br)cc21 (stereo not drawn) [Example 59]: > 7.00
CC(C)CC1(CCCCN2CCN(c3cccc4c3OCCO4)CC2)C(=O)Nc2ccccc21 (stereo not drawn) [Example 64]: > 7.30
CCC1(CCCCN2CCN(c3cccc(Cl)c3)CC2)C(=O)Nc2ccc(C)cc21 (stereo not drawn) [Example 78]: > 7.00
CCC1(CCCCN2CCN(c3cccc(Cl)c3)CC2)C(=O)Nc2ccccc21 (stereo not drawn) [Example 60]: > 7.00

// below: pIC50 requested for another compound
Request: Give a short answer stating reported pIC50 for CC(C)CC1(CCCCN2CCN(c3ccccn3)CC2)C(=O)Nc2ccccc21 (stereo not drawn) [Example 62] .
Result: > 7.00
